Each entry below lists one item and its recorded IC50 value.
target: Recombinant HDAC1 (Homo sapiens (Human)); test: HDAC1 inhibition, Fluor de Lys fluorescent enzyme assay; conditions: 3 hours pre-incubation at room temp; 6 nM enzyme; 16 μM Fluor de Lys substrate; duplicate
Sequence (Q13547 whole entry): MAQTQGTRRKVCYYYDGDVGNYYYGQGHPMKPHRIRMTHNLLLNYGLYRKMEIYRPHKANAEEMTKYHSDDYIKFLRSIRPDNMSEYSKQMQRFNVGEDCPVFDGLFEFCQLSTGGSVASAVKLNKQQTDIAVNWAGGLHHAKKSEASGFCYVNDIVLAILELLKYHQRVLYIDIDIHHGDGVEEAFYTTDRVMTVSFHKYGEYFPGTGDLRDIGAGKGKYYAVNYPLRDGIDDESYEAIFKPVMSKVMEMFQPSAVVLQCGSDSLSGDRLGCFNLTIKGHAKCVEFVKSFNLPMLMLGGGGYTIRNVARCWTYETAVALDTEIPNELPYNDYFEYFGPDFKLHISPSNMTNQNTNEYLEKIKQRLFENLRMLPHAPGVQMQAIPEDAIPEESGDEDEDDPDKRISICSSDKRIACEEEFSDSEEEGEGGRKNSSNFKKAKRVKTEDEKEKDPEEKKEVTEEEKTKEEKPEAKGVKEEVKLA

{"columns": ["MOLECULE", "QUANTITY NAME", "RESULT"],
 "data": [
  ["COCCOCc1cncc(S(=N)(=O)c2ccc(C(=O)Nc3cc(-c4ccc(F)cc4)ccc3N)cc2)c1 (centres unmarked) [Compound 193]", "IC50", "< 100 nM"]
]}

Q: Would you mind telling me what IC50 value was observed for CS(=N)(=O)c1ccc(C(=O)Nc2cc(-c3ccccn3)ccc2N)cc1 (centres unmarked) [Compound 119] ?
Ans: 100 to 500 nM

Q: Would you mind telling me what IC50 value was observed for CS(=N)(=O)c1ccc2oc(C(=O)Nc3cc(-c4ccc(F)cc4)ccc3N)cc2n1 (centres unmarked) [Compound 189] ?
Ans: < 100 nM

Q: Would you mind telling me what IC50 value was observed for COCCS(=N)(=O)c1ccc(C(=O)Nc2cc(-c3cccs3)ccc2N)nc1 (centres unmarked) [Compound 121] ?
Ans: < 100 nM

Q: Would you mind telling me what IC50 value was observed for CS(=N)(=O)c1ccc(C(=O)Nc2cc(-c3cccnc3)ccc2N)cc1 (centres unmarked) [Compound 107] ?
Ans: 100 to 500 nM

Q: Would you mind telling me what IC50 value was observed for N=S(=O)(c1ccc(C(=O)Nc2cc(-c3ccc(F)cc3)ccc2N)cc1)c1cccnc1 (centres unmarked) [Compound 172] ?
Ans: < 100 nM

Q: Would you mind telling me what IC50 value was observed for Cn1cncc1S(=N)(=O)c1ccc(C(=O)Nc2cc(-c3ccc(F)cc3)ccc2N)cc1 (centres unmarked) [Compound 242] ?
Ans: < 100 nM

Q: Would you mind telling me what IC50 value was observed for CS(=N)(=O)Cc1ccc2sc(C(=O)Nc3cc(-c4ccc(F)cc4)ccc3N)cc2c1 (centres unmarked) [Compound 167] ?
Ans: < 100 nM

Q: Would you mind telling me what IC50 value was observed for CC(C)(C)C(=O)N=S(C)(=O)c1ccc(C(=O)Nc2cc(-c3cccs3)ccc2N)cc1 (centres unmarked) [Compound 125] ?
Ans: < 100 nM

Q: Would you mind telling me what IC50 value was observed for COc1ccncc1S(=N)(=O)c1ccc(C(=O)Nc2cc(-c3ccc(F)cc3)ccc2N)cc1 (centres unmarked) [Compound 240] ?
Ans: < 100 nM

Q: Would you mind telling me what IC50 value was observed for CS(=N)(=O)c1cc2ccc(C(=O)Nc3cc(-c4ccc(F)cc4)ccc3N)cc2o1 (centres unmarked) [Compound 187] ?
Ans: < 100 nM

Q: Would you mind telling me what IC50 value was observed for CS(=N)(=O)c1cc2ccc(C(=O)Nc3cc(-c4ccc(F)cc4)ccc3N)cc2s1 (centres unmarked) [Compound 236] ?
Ans: < 100 nM

Q: Would you mind telling me what IC50 value was observed for CS(=N)(=O)c1ccc(C(=O)Nc2cc(-c3ccc(F)cc3)ccc2N)cn1 (centres unmarked) [Compound 129] ?
Ans: < 100 nM

Q: Would you mind telling me what IC50 value was observed for N=S(=O)(c1ccc(C(=O)Nc2cc(-c3ccc(F)cc3F)ccc2N)cc1)C1CC1 (centres unmarked) [Compound 118] ?
Ans: < 100 nM

Q: Would you mind telling me what IC50 value was observed for CS(=N)(=O)c1ccc(C(=O)Nc2cc(-c3ccncc3)ccc2N)cc1 (centres unmarked) [Compound 108] ?
Ans: < 100 nM

Q: Would you mind telling me what IC50 value was observed for N=S(=O)(c1ccc(C(=O)Nc2cc(-c3ccc(F)cc3)ccc2N)cc1)c1cnccn1 (centres unmarked) [Compound 195] ?
Ans: < 100 nM

Q: Would you mind telling me what IC50 value was observed for N=S(=O)(c1ccc(C(=O)Nc2cc(-c3ccc(F)cc3)ccc2N)cn1)C1CC1 (centres unmarked) [Compound 179] ?
Ans: < 100 nM

* * *

biological target: HDAC3/NCor2 (Homo sapiens (Human), UniProt O15379); assay: HDAC3 inhibition, Fluor de Lys fluorescent enzyme assay; conditions: 3 hours pre-incubation at room temp; 1.2 nM enzyme; 16 μM Fluor de Lys substrate; duplicate
Sequence (O15379 whole entry): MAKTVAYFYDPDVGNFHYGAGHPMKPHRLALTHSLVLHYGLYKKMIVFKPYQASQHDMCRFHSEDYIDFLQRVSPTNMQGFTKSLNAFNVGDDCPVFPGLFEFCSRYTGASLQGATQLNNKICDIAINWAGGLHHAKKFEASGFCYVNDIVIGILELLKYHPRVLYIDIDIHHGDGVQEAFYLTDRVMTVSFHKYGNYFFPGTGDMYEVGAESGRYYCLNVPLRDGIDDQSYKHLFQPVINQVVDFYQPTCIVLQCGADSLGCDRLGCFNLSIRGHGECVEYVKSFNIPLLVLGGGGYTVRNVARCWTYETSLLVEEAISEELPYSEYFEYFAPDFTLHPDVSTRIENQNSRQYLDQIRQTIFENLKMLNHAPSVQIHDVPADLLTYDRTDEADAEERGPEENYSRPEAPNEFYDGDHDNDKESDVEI
Sequence (Q9Y618 395-489 partner): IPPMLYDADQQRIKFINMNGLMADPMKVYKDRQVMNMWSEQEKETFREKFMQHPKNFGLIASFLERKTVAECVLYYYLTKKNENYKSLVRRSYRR
pIC50: −log10 of the molar value.
QUANTITY NAME: pIC50

Some compounds with recorded pIC50:
{"columns": ["COMPOUND", "QUANTITY NAME", "RESULT"],
 "data": [
  ["Nc1ccc(-c2ccc(F)cc2)cc1NC(=O)c1ccc(S2(=O)=NCCC2)cc1 (stereo not shown) [Compound 154]", "pIC50", "5.70 to 6.30"],
  ["CS(=N)(=O)c1cc2ccc(C(=O)Nc3cc(-c4ccc(F)cc4)ccc3N)cc2o1 (stereo not shown) [Compound 187]", "pIC50", "5.70 to 6.30"],
  ["CS(=N)(=O)c1ccc(C(=O)Nc2cc(-c3cncnc3)ccc2N)cc1 (stereo not shown) [Compound 151]", "pIC50", "< 5.70"]
]}

Q: Would you mind telling me what pIC50 value was observed for CC(C)(C)OC(=O)N=S(=O)(c1ccc(C(=O)Nc2cc(-c3cccs3)ccc2NC(=O)OC(C)(C)C)cc1)C1CC1 (stereo not shown) [Compound 112] ?
Ans: < 5.70

Q: Would you mind telling me what pIC50 value was observed for CCN=S(C)(=O)c1ccc(C(=O)Nc2cc(-c3cccs3)ccc2N)cc1 (stereo not shown) [Compound 141] ?
Ans: 5.70 to 6.30

* * *

Each entry below lists one item and its recorded IC50 value.
molecular target: HDAC3/NCor2 (Homo sapiens (Human), UniProt O15379); assay: HDAC3 inhibition, Fluor de Lys fluorescent enzyme assay; details: 3 hours pre-incubation at room temp; 1.2 nM enzyme; 16 μM Fluor de Lys substrate; duplicate

Some molecules with recorded IC50:
{"columns": ["MOLECULE", "RESULT"],
 "data": [
  ["N=S(=O)(c1ccc(C(=O)Nc2cc(-c3ccc(F)cc3)ccc2N)cc1)c1ccc(C(F)(F)F)cc1 (stereo not shown) [Compound 256]", "> 2 µM"],
  ["CS(=N)(=O)c1ccc(C(=O)Nc2cc(-c3ccc(Cl)cc3)ccc2N)cc1 (stereo not shown) [Compound 182]", "> 2 µM"],
  ["CS(=N)(=O)c1ccc(C(=O)Nc2cc(-c3ncccn3)ccc2N)cc1 (stereo not shown) [Compound 158]", "> 2 µM"]
]}

Proceeding to the next molecule to report its IC50.
Q: Provide value of IC50 for this record tested with HDAC3/NCor2 (Homo sapiens (Human), UniProt O15379): N=S(=O)(c1ccc2sc(C(=O)Nc3cc(-c4ccc(F)cc4)ccc3N)cc2c1)C1CC1 (stereo not shown) [Compound 224]
Ans: 0.5 to 2 µM

* * *

target: HDAC3/NCor2 (Homo sapiens (Human), UniProt O15379); experiment: HDAC3 inhibition, Fluor de Lys fluorescent enzyme assay; conditions: 3 hours pre-incubation at room temp; 1.2 nM enzyme; 16 μM Fluor de Lys substrate; duplicate
pIC50: −log10 of the molar value.
Each entry below lists one item and its recorded pIC50 value.

Some compounds with recorded pIC50:
{"columns": ["COMPOUND", "RESULT"],
 "data": [
  ["CS(=O)(=NC#N)c1ccc(C(=O)Nc2cc(-c3cccs3)ccc2N)cc1 (centres unmarked)", "5.70 to 6.30"],
  ["CS(=N)(=O)c1ccc(C(=O)Nc2cc(-c3ccc(Cl)s3)ccc2N)cc1 (centres unmarked)", "5.70 to 6.30"],
  ["N=S(=O)(c1ccc(C(=O)Nc2cc(-c3ccc(F)cc3)ccc2N)cc1)c1cncc(F)c1 (centres unmarked)", "5.70 to 6.30"],
  ["Nc1ccc(-c2ccc(Cl)cc2)cc1NC(=O)c1ccc(S2(=O)=NCCC2)cc1 (centres unmarked)", "< 5.70"],
  ["N=[S@@](=O)(c1ccc(C(=O)Nc2cc(-c3ccc(F)cc3)ccc2N)cc1)c1cncnc1 (single isomer, unassigned)", "5.70 to 6.30"]
]}

Q: Would you mind telling me what pIC50 value was observed for CS(=N)(=O)c1ccc(C(=O)Nc2cc(-c3ccsc3)ccc2N)cc1 (centres unmarked) ?
Ans: 5.70 to 6.30

Q: Would you mind telling me what pIC50 value was observed for CS(=N)(=O)c1cc2ccc(C(=O)Nc3cc(-c4ccc(F)cc4)ccc3N)cc2s1 (centres unmarked) ?
Ans: 6.30 to 7.00

Q: Would you mind telling me what pIC50 value was observed for CS(=N)(=O)C1(c2ccc(C(=O)Nc3cc(-c4ccc(F)cc4)ccc3N)cc2)CC1 (centres unmarked) ?
Ans: 5.70 to 6.30

* * *

target: HDAC3/NCor2 (Homo sapiens (Human)); assay: HDAC3 inhibition, Fluor de Lys fluorescent enzyme assay; details: 3 hours pre-incubation at room temp; 1.2 nM enzyme; 16 μM Fluor de Lys substrate; duplicate
Each entry below lists one item and its recorded IC50 value.

Some compounds with recorded IC50:
{"columns": ["COMPOUND", "ASSAY SYSTEM", "IC50"],
 "data": [
  ["CS(=N)(=O)c1coc2cc(C(=O)Nc3cc(-c4ccc(F)cc4)ccc3N)ccc12 (centres unmarked)", "HDAC3/NCor2 (Homo sapiens (Human))", "500 to 2000 nM"],
  ["Nc1ccc(-c2ccc(F)s2)cc1NC(=O)c1ccc(S2(=O)=NCCC2)cc1 (centres unmarked)", "HDAC3/NCor2 (Homo sapiens (Human))", "500 to 2000 nM"],
  ["Nc1ccc(-c2ccc(F)cc2)cc1NC(=O)c1ccc(S2(=O)=NCCC2)nc1 (centres unmarked)", "HDAC3/NCor2 (Homo sapiens (Human))", "500 to 2000 nM"],
  ["C[S@](=N)(=O)c1ccc(C(=O)Nc2cc(-c3ccc(F)cc3)ccc2N)cc1", "HDAC3/NCor2 (Homo sapiens (Human))", "500 to 2000 nM"],
  ["Nc1ccc(-c2ccc(F)cc2)cc1NC(=O)c1ccc([S@@]2(=O)=NCCC2)cc1 (stereo in doubt)", "HDAC3/NCor2 (Homo sapiens (Human))", "500 to 2000 nM"]
]}

Q: Would you mind telling me what IC50 value was observed for Cc1ccc(-c2ccc(N)c(NC(=O)c3ccc(S(C)(=N)=O)cc3)c2)cc1 (centres unmarked) ?
Ans: > 2000 nM

Q: Would you mind telling me what IC50 value was observed for N=S(=O)(c1ccc(C(=O)Nc2cc(-c3ccc(F)cc3)ccc2N)cc1)c1cnccc1C1CC1 (centres unmarked) ?
Ans: 500 to 2000 nM

Q: Would you mind telling me what IC50 value was observed for CS(=N)(=O)c1ccc(C(=O)Nc2cc(C#CC3CC3)ccc2N)cc1 (centres unmarked) ?
Ans: > 2000 nM
